Biological target: IRAK4 (Homo sapiens, UniProt Q9NWZ3)
Construct: endogenous in cells; host or cells: OCI-LY10
Sequence (Q9NWZ3 whole entry): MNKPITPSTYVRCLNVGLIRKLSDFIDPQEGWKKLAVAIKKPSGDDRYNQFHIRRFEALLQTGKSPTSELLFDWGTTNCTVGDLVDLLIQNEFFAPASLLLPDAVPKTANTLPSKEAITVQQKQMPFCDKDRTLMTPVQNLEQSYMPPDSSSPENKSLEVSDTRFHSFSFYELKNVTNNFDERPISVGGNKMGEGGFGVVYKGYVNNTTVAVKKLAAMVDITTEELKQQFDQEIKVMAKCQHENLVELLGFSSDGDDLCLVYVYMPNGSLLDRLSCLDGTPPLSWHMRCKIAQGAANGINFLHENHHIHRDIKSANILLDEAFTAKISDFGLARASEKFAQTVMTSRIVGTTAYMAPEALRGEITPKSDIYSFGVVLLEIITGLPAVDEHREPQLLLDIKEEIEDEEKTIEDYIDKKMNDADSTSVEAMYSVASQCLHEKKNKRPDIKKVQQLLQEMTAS
Assay: IRAK4 MSD Degradation in OCI-LY10
Format: cell-based
Settings: OCI-LY10 cells, 4 hrs incubation, read-out: IRAK4 degradation in OCI-LY10 at 4 hrs: DC50
Quick list: DC50 per entry.

Here is how some compounds turned out for DC50.
Cn1c(=O)n(C2CCC(=O)NC2=O)c2cccc(CC3CCN(C[C@H]4CC[C@H](n5cc6cc(NC(=O)c7cccc(C(F)(F)F)n7)c(C(F)F)cc6n5)CC4)CC3)c21 (some centres unmarked) [I-72] | < 0.05 µM
COc1cc2nn([C@H]3CC[C@H](CN4CCN(c5cccc6c5n(C)c(=O)n6C5CCC(=O)NC5=O)CC4)CC3)cc2cc1NC(=O)c1cccc(C(C)(C)F)n1 (some centres unmarked) [I-167] | 0.05 to 0.1 µM
CN(C[C@H]1CC[C@H](n2cc3cc(NC(=O)c4cccc(C(F)(F)F)n4)c(C(C)(C)O)cc3n2)CC1)C1CCN(c2ccc3c(c2)n(C)c(=O)n3C2CCC(=O)NC2=O)CC1 (some centres unmarked) [I-75] | < 0.05 µM
Cn1c(=O)n(C2CCC(=O)NC2=O)c2cccc(CN3CCC(OC4CCN(C[C@H]5CC[C@H](n6cc7cc(NC(=O)c8cccc(C(F)(F)F)n8)c(C(C)(C)O)cc7n6)CC5)CC4)CC3)c21 (some centres unmarked) [I-66] | < 0.05 µM

Now, please, on to the next compound.
// sample Cn1c(=O)n(C2CCC(=O)NC2=O)c2cccc([C@H]3CC[C@@H](N(C)C[C@H]4CC[C@H](n5cc6cc(NC(=O)c7cccc(C(F)(F)F)n7)c(C(F)F)cc6n5)CC4)CC3)c21 (single isomer, unassigned) [I-165] , its DC50 was < 0.05 µM

* * *

Quick list: DC50 per entry.
Molecular target: IRAK4 (Homo sapiens, UniProt Q9NWZ3)
Construct: endogenous in cells; host or cells: OCI-LY10
Assay: IRAK4 MSD Degradation in OCI-LY10
Format: cell-based
Conditions: OCI-LY10 cells, 24 hrs incubation, read-out: IRAK4 degradation in OCI-LY10 at 24 hrs: DC50

Here is how some molecules turned out for DC50.
COc1cc2nn([C@H]3CC[C@H](CN(C)[C@H]4CC[C@H](CNc5cccc6c5C(=O)N(C5CCC(=O)NC5=O)C6=O)CC4)CC3)cc2cc1NC(=O)c1cccc(C(C)(C)F)n1 (some centres unmarked) [I-90] | 100 to 500 nM
CC(C)(O)COc1cc2nn([C@H]3CC[C@H](CN4CC5(CC(CCNc6cccc7c6C(=O)N(C6CCC(=O)NC6=O)C7=O)C5)C4)CC3)cc2cc1NC(=O)c1cccc(C(C)(F)F)n1 (some centres unmarked) [I-296] | 50 to 100 nM
COc1cc2nn([C@H]3CC[C@H](CN4CCC5(CC4)CC(CCNc4cccc6c4C(=O)N(C4CCC(=O)NC4=O)C6=O)C5)CC3)c(C)c2cc1NC(=O)c1cccc(C(F)(F)F)n1 (some centres unmarked) [I-136] | 50 to 100 nM
CC(C)(C)c1cccc(C(=O)Nc2cc3cn([C@H]4CC[C@H](CN5CCC6(CC5)CC(Nc5cccc7c5C(=O)N(C5CCC(=O)NC5=O)C7=O)C6)CC4)nc3cc2C(C)(C)O)n1 (some centres unmarked) [I-249] | 50 to 100 nM

Now, please, on to the next molecule.
// sample CC(C)(O)c1cc2nc(N3CCC(CN4CCC5(CC4)CC(Nc4cccc6c4C(=O)N(C4CCC(=O)NC4=O)C6=O)C5)CC3)oc2cc1NC(=O)c1cccc(C(F)(F)F)n1 (centres unmarked) [I-184] , its DC50 was 50 to 100 nM
